# JAK1/TYK2 selectivity per entry
# tested_target: TYK2-JH2 domain (Homo sapiens, UniProt P29597)
# Construct: IC50 on JH2 domain activity (nM)
# Sequence (P29597 589-875 limits assumed): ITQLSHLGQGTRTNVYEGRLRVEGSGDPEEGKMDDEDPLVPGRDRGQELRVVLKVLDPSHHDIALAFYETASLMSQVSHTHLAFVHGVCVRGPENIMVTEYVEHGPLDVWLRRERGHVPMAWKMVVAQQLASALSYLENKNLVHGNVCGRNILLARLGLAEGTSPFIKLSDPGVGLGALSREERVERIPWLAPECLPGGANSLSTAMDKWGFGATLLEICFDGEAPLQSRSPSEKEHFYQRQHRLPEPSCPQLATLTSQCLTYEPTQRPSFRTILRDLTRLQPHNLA
# assay_info: Binding activity test for JH2 domain of TYK2 (Tb-antibody/tracer FRET)
# protocol_conditions: ratio JAK1-JH2 IC50 / TYK2-JH2 IC50
Just the number, please.

CCn1ncc2ccc(Nc3cc(NC(=O)C4CC4)ncc3C(=O)NC)c(OC)c21: 22.5
[2H]C([2H])([2H])NC(=O)c1cnc(NC(C)=O)cc1Nc1ccc2cnn(CC)c2c1OC: 19.5
[2H]C([2H])([2H])NC(=O)c1cnc(Nc2ccn(C)n2)cc1Nc1ccn2ncc(C#N)c2c1OC: 19.5

Note: attention shifts to another entry.
Quick one: JAK1/TYK2 selectivity for [2H]C([2H])([2H])NC(=O)c1cnc(Nc2ccc(F)cn2)cc1Nc1nn(C)c2ccn(CC)c(=O)c12 ?
23.6

###

# pIC50 per entry
# tested_target: JAK1-JH2 domain (Homo sapiens)
# Construct: IC50 on JH2 domain activity (nM)
# Sequence (P23458 583-855 limits assumed): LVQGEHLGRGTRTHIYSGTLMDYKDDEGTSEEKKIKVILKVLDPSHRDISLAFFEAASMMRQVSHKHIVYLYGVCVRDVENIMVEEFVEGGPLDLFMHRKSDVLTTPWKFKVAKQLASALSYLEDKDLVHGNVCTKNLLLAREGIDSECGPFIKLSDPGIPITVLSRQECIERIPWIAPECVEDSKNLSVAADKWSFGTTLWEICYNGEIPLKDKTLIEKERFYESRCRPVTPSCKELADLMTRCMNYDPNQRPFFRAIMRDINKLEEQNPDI
# assay_info: Binding activity test for JH2 domain of JAK1 (Tb-antibody/tracer FRET)
# Method: Binding Activity Test for […] Domain of JAK1 and TYK2 The compounds are prepared in DMSO for 200× top dose, then serial dilute it with 27-fold for 3 more points. Add 8 μL/well in echo source plate, echo will add 75 nL/well with 3-fold serial dilution for 11 points in assay plate. 75 nL DMSO for high control and low control. […] For low control, add 5 μL/well assay buffer. […] Read by envision in FRET mode. The Luminescence value was recorded by a multi-label reader Envision (PerkinElmer).
pIC50 here: minus log base 10 of the concentration, concentration in moles per litre.

# example entries with known answers
[2H]C([2H])([2H])NC(=O)c1cnc(NC(=O)C2CC2)cc1Nc1ccn2ncc(CC(N)=O)c2c1OC: 6.89
[2H]C([2H])([2H])NC(=O)c1cnc(NC(=O)C2CC2)cc1Nc1cn(C)c2ncn([C@@H](C)C(F)(F)F)c(=O)c12 (single isomer, unassigned) [Example 234B]: 6.61
[2H]C([2H])([2H])NC(=O)c1cnc(NC(=O)C2CC2)cc1Nc1cn(CC)c2ncn([C@H](C)C(F)(F)F)c(=O)c12 (single isomer, unassigned) [Example 254A]: 7.36

Quick one: pIC50 for [2H]C([2H])([2H])NC(=O)c1cnc(NC(C)=O)cc1Nc1ccc2cnn(CC)c2c1OC ?
7.23

Quick one: pIC50 for [2H]C([2H])([2H])NC(=O)c1cnc(NC(=O)C2CC2)cc1Nc1ccn2ncc(C(C)C(N)=O)c2c1OC (centres unmarked) ?
6.67

Quick one: pIC50 for [2H]C([2H])([2H])NC(=O)c1cnc(Nc2ccn(C)n2)cc1Nc1ccn2ncc(C)c2c1OC ?
8.35

Quick one: pIC50 for [2H]C([2H])([2H])NC(=O)c1cnc(Nc2ccncn2)cc1Nc1cc(F)c2cnn(CC)c2c1OC ?
7.60

Quick one: pIC50 for [2H]C([2H])([2H])NC(=O)c1cnc(NC(=O)C2CC2)cc1Nc1cn(CC(F)(F)F)c2ccn(CC)c(=O)c12 ?
7.95

Quick one: pIC50 for [2H]C([2H])([2H])NC(=O)c1cnc(NC(=O)C2CC2)cc1Nc1ccn2ncc(C#N)c2c1OC ?
7.73

Quick one: pIC50 for [2H]C([2H])([2H])NC(=O)c1cnc(Nc2ccc(F)cn2)cc1Nc1ccn2ncc(C#N)c2c1OC ?
8.50

Quick one: pIC50 for [2H]C([2H])([2H])NC(=O)c1cnc(NC(=O)C2CC2)cc1Nc1ncc2cnn(CC(F)(F)F)c2c1OC ?
7.35

Quick one: pIC50 for [2H]C([2H])([2H])NC(=O)c1cnc(NC(=O)C2CC2)cc1Nc1ncc2ncn(CC)c2c1OC ?
8.01

Quick one: pIC50 for [2H]C([2H])([2H])NC(=O)c1cnc(NC(=O)[C@@H]2C[C@@H]2F)cc1Nc1ccc2cnn(CC)c2c1OC (relative stereo) ?
7.97

Numbers sourced from patent US20250115597A1.
